src = ChEMBL document CHEMBL3046591

System: Escherichia coli
MEASUREMENT PROTOCOL: Antibacterial activity against Escherichia coli ATCC 25922 after 18 hr by agar well diffusion method
Assay type: functional
Activity calls are given as the source filed them. No cut-off for these calls is given here.

[
  {
    "COMPOUND": "Cc1nn(S(=O)(=O)c2ccc([N+](=O)[O-])cc2)c(=O)n1Cc1ccco1",
    "inhibition zone (IZ)": "15 mm"
  },
  {
    "COMPOUND": "Cc1n[nH]c(=O)n1CC1CCCO1 (stereo unspecified)",
    "inhibition zone (IZ)": "inactive"
  },
  {
    "COMPOUND": "Cc1nn(Cc2nnc(S)n2-c2ccccc2)c(=O)n1Cc1ccco1",
    "inhibition zone (IZ)": "6 mm"
  },
  {
    "COMPOUND": "O=c1n(S(=O)(=O)c2ccc(Br)cc2)nc(Cc2ccccc2)n1Cc1ccco1",
    "inhibition zone (IZ)": "10 mm"
  },
  {
    "COMPOUND": "CCOC(=O)Cn1nc(C)n(Cc2ccco2)c1=O",
    "inhibition zone (IZ)": "inactive"
  },
  {
    "COMPOUND": "Cc1nn(S(=O)(=O)c2ccccc2)c(=O)n1Cc1ccco1",
    "inhibition zone (IZ)": "20 mm"
  },
  {
    "COMPOUND": "Cc1n[nH]c(=O)n1Cc1ccco1",
    "inhibition zone (IZ)": "inactive"
  },
  {
    "COMPOUND": "CCCS(=O)(=O)n1nc(Cc2ccccc2)n(Cc2ccco2)c1=O",
    "inhibition zone (IZ)": "8 mm"
  },
  {
    "COMPOUND": "Cc1nn(Cc2n[nH]c(=O)n2Cc2ccccc2)c(=O)n1Cc1ccco1",
    "inhibition zone (IZ)": "8 mm"
  },
  {
    "COMPOUND": "O=c1n(S(=O)(=O)c2ccc(Cl)cc2)nc(Cc2ccccc2)n1Cc1ccco1",
    "inhibition zone (IZ)": "6 mm"
  },
  {
    "COMPOUND": "O=c1[nH]nc(Cc2ccccc2)n1Cc1ccco1",
    "inhibition zone (IZ)": "inactive"
  }
]

###

Test system: Staphylococcus aureus
MEASUREMENT PROTOCOL: Antibacterial activity against Staphylococcus aureus ATCC 25923 after 18 hr by agar well diffusion method
Assay type: functional
Activity calls are given as the source filed them. The rule behind the calls is not given here.
MEASURED ATTRIBUTE: inhibition zone (IZ)

[
  {
    "COMPOUND": "O=c1[nH]nc(Cc2ccccc2)n1Cc1ccco1",
    "SUBJECT OF TEST": "Staphylococcus aureus",
    "RESULT": "20 mm"
  },
  {
    "COMPOUND": "Cc1nn(S(=O)(=O)c2ccccc2)c(=O)n1Cc1ccco1",
    "SUBJECT OF TEST": "Staphylococcus aureus",
    "RESULT": "35 mm"
  },
  {
    "COMPOUND": "O=c1n(S(=O)(=O)c2ccc(Cl)cc2)nc(Cc2ccccc2)n1Cc1ccco1",
    "SUBJECT OF TEST": "Staphylococcus aureus",
    "RESULT": "15 mm"
  },
  {
    "COMPOUND": "CCOC(=O)Cn1nc(C)n(Cc2ccco2)c1=O",
    "SUBJECT OF TEST": "Staphylococcus aureus",
    "RESULT": "8 mm"
  },
  {
    "COMPOUND": "Cc1nn(Cc2n[nH]c(=O)n2Cc2ccccc2)c(=O)n1Cc1ccco1",
    "SUBJECT OF TEST": "Staphylococcus aureus",
    "RESULT": "inactive"
  },
  {
    "COMPOUND": "O=c1n(S(=O)(=O)c2ccc(Br)cc2)nc(Cc2ccccc2)n1Cc1ccco1",
    "SUBJECT OF TEST": "Staphylococcus aureus",
    "RESULT": "10 mm"
  },
  {
    "COMPOUND": "Cc1n[nH]c(=O)n1Cc1ccco1",
    "SUBJECT OF TEST": "Staphylococcus aureus",
    "RESULT": "20 mm"
  },
  {
    "COMPOUND": "Cc1nn(S(=O)(=O)c2ccc([N+](=O)[O-])cc2)c(=O)n1Cc1ccco1",
    "SUBJECT OF TEST": "Staphylococcus aureus",
    "RESULT": "15 mm"
  },
  {
    "COMPOUND": "Cc1nn(Cc2nnc(S)n2-c2ccccc2)c(=O)n1Cc1ccco1",
    "SUBJECT OF TEST": "Staphylococcus aureus",
    "RESULT": "inactive"
  },
  {
    "COMPOUND": "CCCS(=O)(=O)n1nc(Cc2ccccc2)n(Cc2ccco2)c1=O",
    "SUBJECT OF TEST": "Staphylococcus aureus",
    "RESULT": "15 mm"
  },
  {
    "COMPOUND": "Cc1n[nH]c(=O)n1CC1CCCO1 (stereo unspecified)",
    "SUBJECT OF TEST": "Staphylococcus aureus",
    "RESULT": "20 mm"
  }
]

###

Test system: Klebsiella aerogenes
MEASUREMENT PROTOCOL: Antibacterial activity against Enterobacter aerogenes ATCC 13048 after 18 hr by agar well diffusion method
Format: functional
Items are presented alongside their recorded inhibition zone (IZ).
MEASURED ATTRIBUTE: inhibition zone (IZ) (mm)

[
  {
    "CHEMICAL STRING": "O=c1n(S(=O)(=O)c2ccc(Cl)cc2)nc(Cc2ccccc2)n1Cc1ccco1",
    "UNIT LABEL": "mm",
    "RECORDED NUMBER": 8
  },
  {
    "CHEMICAL STRING": "CCCS(=O)(=O)n1nc(Cc2ccccc2)n(Cc2ccco2)c1=O",
    "UNIT LABEL": "mm",
    "RECORDED NUMBER": 8
  },
  {
    "CHEMICAL STRING": "Cc1nn(S(=O)(=O)c2ccc([N+](=O)[O-])cc2)c(=O)n1Cc1ccco1",
    "UNIT LABEL": "mm",
    "RECORDED NUMBER": 15
  },
  {
    "CHEMICAL STRING": "Cc1n[nH]c(=O)n1Cc1ccco1",
    "UNIT LABEL": "mm",
    "RECORDED NUMBER": 10
  },
  {
    "CHEMICAL STRING": "O=c1n(S(=O)(=O)c2ccc(Br)cc2)nc(Cc2ccccc2)n1Cc1ccco1",
    "UNIT LABEL": "mm",
    "RECORDED NUMBER": 8
  }
]

###

Tested on: Listeria monocytogenes
MEASUREMENT PROTOCOL: Antibacterial activity against Listeria monocytogenes ATCC 43251 after 18 hr by agar well diffusion method
Assay type: functional
The source made the active and inactive calls. No cut-off for these calls is given here.

[
  {
    "CHEMICAL STRING": "O=c1[nH]nc(Cc2ccccc2)n1Cc1ccco1",
    "SUBJECT OF TEST": "Listeria monocytogenes",
    "inhibition zone (IZ)": "8 mm"
  },
  {
    "CHEMICAL STRING": "Cc1nn(S(=O)(=O)c2ccc([N+](=O)[O-])cc2)c(=O)n1Cc1ccco1",
    "SUBJECT OF TEST": "Listeria monocytogenes",
    "inhibition zone (IZ)": "inactive"
  },
  {
    "CHEMICAL STRING": "CCCS(=O)(=O)n1nc(Cc2ccccc2)n(Cc2ccco2)c1=O",
    "SUBJECT OF TEST": "Listeria monocytogenes",
    "inhibition zone (IZ)": "inactive"
  },
  {
    "CHEMICAL STRING": "CCOC(=O)Cn1nc(C)n(Cc2ccco2)c1=O",
    "SUBJECT OF TEST": "Listeria monocytogenes",
    "inhibition zone (IZ)": "8 mm"
  },
  {
    "CHEMICAL STRING": "O=c1n(S(=O)(=O)c2ccc(Br)cc2)nc(Cc2ccccc2)n1Cc1ccco1",
    "SUBJECT OF TEST": "Listeria monocytogenes",
    "inhibition zone (IZ)": "inactive"
  }
]
